- assayName: Toxicity liver stage against HepG2, at 10uM
- Type: cell-based
- Parameters: test concentration 10 uM, cell line HepG2-A16-CD81EGFP
- experimentalParameters: human, HepG2-A16-CD81EGFP cells; read-out: INHIBITION
cytotoxicity at 10 µM values for the molecules below.
propertyMeasured: cytotoxicity at 10 µM (%)

molecule="O=S1(=O)NC(C2CCN(Cc3ccncc3)CC2)Nc2ccccc21 (configuration not stated)" readoutunit=% number=-19.3
molecule="O=C1CC(N2CCN(c3ccc(F)cc3)CC2)C(=O)N1Cc1cccs1 (configuration not stated)" readoutunit=% number=-0.31
molecule=CCN(C(=O)C1=NN(c2ccccc2)C(=O)CN1)c1ccccc1 readoutunit=% number=12
molecule=COCc1nc(-c2ccnc(N3CCNCC3)n2)no1 readoutunit=% number=12.5
molecule=COCc1nc2cc(NCc3csc(C)n3)ccc2o1 readoutunit=% number=0.873
molecule="Cc1n[nH]c(C2CN(C(=O)c3scnc3C)CCO2)n1 (configuration not stated)" readoutunit=% number=10.6
molecule=CC(C)N(C)Cc1cc(=O)n2c(n1)CN(S(=O)(=O)C1CC1)CCC2 readoutunit=% number=0.819
molecule=Cc1cnc(C(=O)N2Cc3ccccc3OC3(CCOCC3)C2)cn1 readoutunit=% number=-1.54
molecule="CC(C(=O)N1CCc2sccc2C1)N1CCC(N2CCCC2)CC1 (configuration not stated)" readoutunit=% number=10.9
molecule="CCN(CC1CCOC1)C(=O)c1ccn(-c2ccc(OC)cc2)n1 (configuration not stated)" readoutunit=% number=-4.19
molecule=CN(C)CCN(C)c1nc(CCc2ccccc2)nc2c1cnn2C readoutunit=% number=0.562
molecule="O=C(Nc1ccc(-c2csnn2)cc1)NC(CCO)C1CC1 (configuration not stated)" readoutunit=% number=15.6
molecule=Cc1cc(C)n(CC(=O)N2CCC(NS(C)(=O)=O)CC2)n1 readoutunit=% number=3.18
molecule="CC(c1cccc(-c2ccc(C(=O)O)cc2Cl)c1)N(C)C (configuration not stated)" readoutunit=% number=-2.25
molecule=COc1ccc2cccc(CC(=O)NCCc3n[nH]c(=O)[nH]3)c2c1 readoutunit=% number=-3.59
molecule=Cn1ncc2c(N3CC[C@H](O)C3)nc(-c3ccncc3)nc21 readoutunit=% number=4.63
molecule="Cc1nn(Cn2ccc(C(=O)N3CCCC(C)C3)n2)c(C)c1Cl (configuration not stated)" readoutunit=% number=2
molecule=CC(C)c1nnc(NC(=O)NCc2cccnc2NCCN(C)C)s1 readoutunit=% number=3.92
molecule="CC(C)N(C)C(=O)C1=NOC2(CCN(C(=O)c3ccccn3)C2)C1 (configuration not stated)" readoutunit=% number=-13.4
molecule=Cc1cc(C)n(-c2ccc(C(=O)NCc3cncn3CC(C)C)cc2)n1 readoutunit=% number=-4.04
molecule=Cn1cc(CN2C[C@H](N3CCOCC3)[C@@H]3OCCC[C@@H]32)cn1 readoutunit=% number=5.02
molecule=CC(C)c1ncc(Cl)c(C(=O)N2CCN(C3CCCC3)CC2)n1 readoutunit=% number=8.69
molecule="CN(C)c1cc(CNC(=O)C2COc3ccccc3O2)ccn1 (configuration not stated)" readoutunit=% number=2.5
molecule="O=C(NCCn1cccn1)C1CCC(=O)N(CC2CCCCC2)C1 (configuration not stated)" readoutunit=% number=6.8
molecule=Cc1ncccc1Oc1ncnc(N2CCC3(CCCO3)CC2)c1C readoutunit=% number=-6.89
molecule=O=C(NCc1cc(C2CC2)n(C2CCCC2)n1)C1CC1 readoutunit=% number=2.16
molecule="Cc1cc(C)n(-c2cccc(C(=O)Nc3n[nH]c(C4CCCO4)n3)c2)n1 (configuration not stated)" readoutunit=% number=-4.44
molecule=COCCCNc1ncc(-c2cccc(F)c2)c(-c2nccn2C)n1 readoutunit=% number=8.97
molecule=CCOC(=O)[C@]12CCCN(Cc3cccs3)C[C@H]1CN(CCOC)C2 readoutunit=% number=5.13
molecule="CC1CCc2nn(CCNC(=O)Cc3ccccc3F)c(=O)cc2C1 (configuration not stated)" readoutunit=% number=6.66
molecule="Cc1oc(-c2ccco2)nc1CNC1CCCN(c2cccnn2)C1 (configuration not stated)" readoutunit=% number=-2.87
molecule=Cc1noc(C)c1CN(Cc1ccccc1)C(C)C readoutunit=% number=-9.74
molecule="O=C(c1ccc(N2CCCC2)nc1)N1CCCC(n2cncn2)C1 (configuration not stated)" readoutunit=% number=-5.22
molecule=CCCc1cncnc1N1CCC2(CCC(=O)N(CCOC)C2)CC1 readoutunit=% number=1.86
molecule="O=C(c1ccsc1)N1CCC2(CCN(Cc3ccccn3)C2=O)C1 (configuration not stated)" readoutunit=% number=-147
molecule=COc1cccc2c1ccn2CCC(=O)Nc1c2c(nn1C)CSC2 readoutunit=% number=5.11
molecule=CN(CC(=O)N1CCCC1)C(=O)c1ccccc1Nc1ccccc1 readoutunit=% number=11.3
molecule=Cc1cc(CN2CCN(C(=O)c3ccc(=O)n(C)c3)CC2)no1 readoutunit=% number=-8.07
molecule=NS(=O)(=O)N1CCc2ccc(NC(=O)Cc3ccccc3F)cc21 readoutunit=% number=1.17
molecule="CCN(Cc1nc(C)no1)C(=O)C1CC(=O)N(Cc2ccccn2)C1 (configuration not stated)" readoutunit=% number=4.78
molecule=COc1cc(C(=O)N2CC3(CCNCC3)c3cc(Cl)ccc32)ccn1 readoutunit=% number=52.8
molecule=COc1c(CNCc2ccc(N3CCOCC3)nc2)c(C)nn1C readoutunit=% number=9.5
molecule="CCC(C(=O)NCC1=CCCN(C)C1)c1ccccc1 (configuration not stated)" readoutunit=% number=-2.65
molecule="NC(=O)C1CCCN1Cc1cccc(NC(=O)c2cc(Cl)cc(Cl)c2)c1 (configuration not stated)" readoutunit=% number=21.3
molecule="COc1cc(OC)cc(N2CCC(NCc3ccsc3)C2=O)c1 (configuration not stated)" readoutunit=% number=0.347
molecule="Cc1ccc(-c2noc(CCC(=O)NC(C)Cn3cccn3)n2)cc1 (configuration not stated)" readoutunit=% number=8.41
molecule=Cc1cccc2c1nc1n2[C@@H](CNC(=O)CCC(=O)O)COC1 readoutunit=% number=-4.83

###

- assayName: Toxicity liver stage against HepG2, at 10uM
- Assay type: cell-based
- Design: test concentration 10 uM, cell line HepG2-A16-CD81EGFP
- experimentalParameters: human, HepG2-A16-CD81EGFP cells; read-out: INHIBITION
cytotoxicity at 10 µM values for the compounds below.
propertyMeasured: cytotoxicity at 10 µM (%)

compound="Cc1ccc(C(=O)N2CCCC2c2nnc3n2CCCCC3)s1 (stereo unspecified)" readoutunit=% number=-0.208
compound="Cc1nc(C)n(CC2CCCN(CCCOc3ccccc3)C2)n1 (stereo unspecified)" readoutunit=% number=3.15
compound=CC1(C)CC(CC(=O)N2CC(C)(C)[C@@](C)(O)C2)CC(C)(C)N1 readoutunit=% number=-4.84
compound=O=C(Nc1cccn(Cc2ccc(F)cc2)c1=O)c1cnc[nH]1 readoutunit=% number=0.0616
compound="COc1ccc(CN2CCC3(CC(C(=O)NCC(C)C)=NO3)C2)cc1 (stereo unspecified)" readoutunit=% number=11
compound=NC(=O)c1c[nH]nc1NC(=O)c1ccc(Cl)cc1 readoutunit=% number=3.19

###

- assayName: Toxicity liver stage against HepG2, at 10uM
- Type: cell-based
- Parameters: test concentration 10 uM, cell line HepG2-A16-CD81EGFP
- experimentalParameters: human, HepG2-A16-CD81EGFP cells; read-out: INHIBITION
propertyMeasured: cytotoxicity at 10 µM (%)

compound=Nc1cc2c(nn1)CCN(C(=O)c1ccccc1Oc1cccnc1)C2 number=-6.21
compound="CCC(NCc1ccccc1C)c1ccccc1OCC(=O)NC (centres undefined)" number=16.9
compound="O=C(c1cnc(NCCC2CCCO2)c(Cl)c1)N1CCCCC1 (centres undefined)" number=-2.01
compound=COc1cc2c(cc1CN1C[C@@H](CN3CCOCC3)[C@@H](CO)C1)CCC2 number=-2.37
compound="O=c1[nH]c2cc3c(cc2cc1CN1CCCC1c1ccccn1)CCC3 (centres undefined)" number=-2.11
compound=c1ccc(OCc2n[nH]c3c2CN(Cc2cccs2)C3)nc1 number=8.25
compound="COCCC1(CO)CCCN(C(=O)c2cc(C#N)c(=O)[nH]c2C)C1 (centres undefined)" number=-37.7
compound=Cc1cnc(N2Cc3cnn(Cc4ccc(F)cc4)c3C2)nc1N(C)C number=6.02
compound=CCCc1nc(CN2CCCN(Cc3nccn3C)CC2)no1 number=-3.33
compound=Cc1cccc(CN2Cc3[nH]nc(COCc4nccs4)c3C2)n1 number=-7.12
compound="Cn1ccnc1CN1CCOCC(Cc2ccccn2)C1 (centres undefined)" number=7.17
compound=O=C(c1cocn1)N1C[C@H]2CCC[C@@]2(COCc2cccnc2)C1 number=7.35
compound="CCOc1cccc(C2CC(=O)NCc3nc(N4CCCC4)sc32)c1 (centres undefined)" number=-2.53
compound=Cc1cccc(CN2C[C@@H]3COC[C@]3(CNC(=O)c3ccno3)C2)n1 number=3.84
compound="CC(C)=CCCC(C)CN1CCC(n2cc(C(=O)NCCO)nn2)CC1 (centres undefined)" number=0.232
compound="O=C(c1ccccn1)N1CCC2(CNS(=O)(=O)c3cnccc3O2)C1 (centres undefined)" number=14.5
compound=CC(C)COCCCNC(=O)c1cccnc1N1CCOCC1 number=-5.12
compound="CCOc1ncccc1NC(=O)C1CCS(=O)(=O)C1 (centres undefined)" number=-16.7
compound=CN(C)C(=O)COC[C@H]1CC[C@@H]2[C@@H](CCN2Cc2ccco2)O1 number=-160
compound="CN(CC(=O)N1CCCCC1c1nccs1)C1CC1 (centres undefined)" number=10.2
compound="N#CC1COCCN1S(=O)(=O)c1ccc(F)c(Br)c1 (centres undefined)" number=4.43
compound=COCc1nc(CNC(=O)c2cc(C)c(C)[nH]c2=O)no1 number=4.19
compound=N#Cc1ccc(CN(CC(N)=O)C2CCCC2)c(Br)c1 number=30.1
compound="CC(C(=O)NCCOc1ccc2c(c1)CCC2)n1cncn1 (centres undefined)" number=-1.58
